- studySystem: Torsin-1A (Homo sapiens)
- methodSummary: torsin A binders from cell lysate, primary screen, small-molecule microarray, wild-type, 635/667 nm (AID 1149)
- assaySetup: COS7 hTOR1A-WT lysate, 635 nm fluorescence, higher = more signal
readoutKind: composite z-score
Lab note: record the figure alone, no unit after it.

| compound | composite z-score |
| --- | --- |
| COCCCNC(=O)[C@]1(CCS(=O)(=O)c2ccccc2)N=C(c2ccc(OCCCO)cc2)O[C@@H]1c1ccccc1CN=[N+]=[N-] | 1.35 |

(Q) Indicate its recorded composite z-score; the compound in question is `CCOC(=O)C[C@H]1[C@H](OC(=O)c2ccccc2-c2ccccc2)[C@@H](NC(=O)C2CCCCC2)c2cc(OCCCO)ccc2N1C(=O)Cc1ccc(OC)cc1`
(A) -0.0183

(Q) Input `COCCOC(=O)N1C(=O)[C@@]2(c3cc(C#CCNC(N)=O)ccc31)[C@H](C(=O)N1CCc3cc(OC)c(OC)cc3C1)[C@H]1C(=O)O[C@H](c3ccccc3)[C@H](c3ccccc3)N1[C@@H]2c1ccccc1OCCO` , output reported composite z-score.
(A) 0.969

(Q) Let me know recorded composite z-score for `COC(=O)c1cn(C[C@@H](Cc2ccccc2)NC(=O)N[C@H](CO)CCc2oc(C(C)=O)c(C(=O)OC)c2C(=O)OC)nn1` , thanks.
(A) 0.658

This collection of values is drawn from PubChem BioAssay.
